Hey, just so you know, these numbers are from patent US20180016324A1.

Here the recorded t½ is given for each entry.
- MEASURED ON: T1, ZIKV (prM80E) with a C-terminal myc-myc-hexahistidine tag (Zika virus, UniProt A0A024B7W1 104-694)
- T1 construct: also called ZIKV (prM80E)-mmH; ZIKV-mmH
- TEST DESCRIPTION: SPR, mAb captured, 37C
PROPERTY NAME: t½ (min)

INSERT INTO measurements (binder, property_name, measured_result) VALUES
  ('H4H25619P (antibody, V domains shown) VH: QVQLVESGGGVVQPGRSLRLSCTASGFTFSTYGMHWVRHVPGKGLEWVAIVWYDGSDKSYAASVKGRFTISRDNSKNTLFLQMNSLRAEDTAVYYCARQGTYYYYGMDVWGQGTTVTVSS VL: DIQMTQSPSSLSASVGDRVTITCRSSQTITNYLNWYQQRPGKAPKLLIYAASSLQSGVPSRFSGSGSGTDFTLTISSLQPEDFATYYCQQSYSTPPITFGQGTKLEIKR', 't½', 10.7),
  ('H4H25704N (antibody, V domains shown) VH: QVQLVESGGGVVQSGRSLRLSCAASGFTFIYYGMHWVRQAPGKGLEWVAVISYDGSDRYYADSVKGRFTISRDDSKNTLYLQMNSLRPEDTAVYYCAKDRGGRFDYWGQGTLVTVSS VL: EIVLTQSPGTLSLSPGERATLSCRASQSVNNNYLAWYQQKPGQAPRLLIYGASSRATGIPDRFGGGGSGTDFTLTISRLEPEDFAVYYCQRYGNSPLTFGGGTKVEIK', 't½', 9.6),
  ('H4H25591P (antibody, V domains shown) VH: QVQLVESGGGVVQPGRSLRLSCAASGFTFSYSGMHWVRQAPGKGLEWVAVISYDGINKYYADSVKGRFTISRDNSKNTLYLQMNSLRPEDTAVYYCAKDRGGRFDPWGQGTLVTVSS VL: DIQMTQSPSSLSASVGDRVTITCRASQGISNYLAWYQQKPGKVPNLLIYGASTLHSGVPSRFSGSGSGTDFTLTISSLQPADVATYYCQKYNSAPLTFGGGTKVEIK', 't½', 1.7);
